Where these numbers come from: patent US20250034267A1

Biological target: T1, CD25 endogenously expressed on SUDHL-1 human lymphoma cell line and induced human Treg (iTreg) (human, UniProt P01589 22-272)
T1 sequence (looked up): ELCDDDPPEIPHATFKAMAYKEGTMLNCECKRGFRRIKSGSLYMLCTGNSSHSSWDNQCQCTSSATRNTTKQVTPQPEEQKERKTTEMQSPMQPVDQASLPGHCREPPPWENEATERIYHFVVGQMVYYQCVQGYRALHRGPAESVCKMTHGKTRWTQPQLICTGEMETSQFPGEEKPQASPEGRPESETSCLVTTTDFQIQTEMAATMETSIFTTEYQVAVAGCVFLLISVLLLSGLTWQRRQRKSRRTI
Test: cell-based or functional assay
readout: EC50, iTreg/NFAT CD16 ADCC reporter assay

Fill blank: measured EC50, iTreg/NFAT CD16 ADCC reporter assay of the binder IBIO-101-CHO-afuc (SD-889825-CG-A; IBIO-101, CHO cells Afucosylated) (antibody, human IgG1, kappa, V domains shown, Same antibody made in CHO cells, afucosylated glycans; also called RTX-003; hD11) VH: QVQLVQSGAEVKKPGASLKISCKGSGYTFTDYAMHWVRQAPGQGLEWIGVISTYSGDAIYAQKFQGRATMTVDTSTSTAYLELSSLRSEDTAVYYCARGVTFDYWGQGTTVTVSS VL: DIQMTQSPSSLSASVGDRVTITCRASQDISNYLEWYQQKPGKAPKLLVYNAKTLAEGVPSRFSGSGSGTDFTLTISSLQPEDFGTYYCQHHYDTPYTFGQGTKLEIKR is ____.
4.71 ng/mL
